Record form. Attribute: Infection Luciferase Activity, 1 uM + 17β estradiol. Fill in for each entry.
# ASSAY_TARGET: estrogen receptor (Homo sapiens (Human), UniProt P03372)
# Sequence (P03372 whole entry): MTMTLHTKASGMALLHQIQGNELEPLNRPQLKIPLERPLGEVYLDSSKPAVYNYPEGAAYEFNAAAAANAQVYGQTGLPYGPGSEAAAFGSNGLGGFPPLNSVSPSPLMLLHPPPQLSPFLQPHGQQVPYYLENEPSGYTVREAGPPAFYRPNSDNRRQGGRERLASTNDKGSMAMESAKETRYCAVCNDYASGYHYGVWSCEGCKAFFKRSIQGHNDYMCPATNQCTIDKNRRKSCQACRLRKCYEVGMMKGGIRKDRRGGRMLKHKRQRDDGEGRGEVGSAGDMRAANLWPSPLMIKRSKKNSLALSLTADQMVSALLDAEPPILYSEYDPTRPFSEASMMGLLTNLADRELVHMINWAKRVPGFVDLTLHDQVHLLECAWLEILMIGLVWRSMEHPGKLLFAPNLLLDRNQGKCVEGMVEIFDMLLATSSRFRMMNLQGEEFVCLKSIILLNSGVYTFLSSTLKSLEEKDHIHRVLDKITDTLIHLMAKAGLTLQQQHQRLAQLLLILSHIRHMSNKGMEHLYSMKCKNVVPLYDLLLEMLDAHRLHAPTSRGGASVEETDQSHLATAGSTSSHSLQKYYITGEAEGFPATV
# PROTOCOL_TEXT: 2×VIT ERE infection luciferase assay
# Assay type: cell-based
# SETTINGS: 1 uM compound + 1 nM 17β-estradiol (estrogen antagonism)
I only need the number, in %, no unit after it.

What measured Infection Luciferase Activity, 1 uM + 17β estradiol goes with Cc1c(-c2ccc(O)cc2)n(Cc2ccc(OCCN3CCCC3)cc2)c2ccc(O)cc12 ?
8

What measured Infection Luciferase Activity, 1 uM + 17β estradiol goes with Cc1c(-c2ccccc2)n(Cc2ccc(OCCN3CCCCC3)cc2)c2ccccc12 ?
43

What measured Infection Luciferase Activity, 1 uM + 17β estradiol goes with Cc1c(-c2ccc(C(F)(F)F)cc2)n(Cc2ccc(OCCN3CCCCC3)cc2)c2ccc(O)cc12 ?
1

What measured Infection Luciferase Activity, 1 uM + 17β estradiol goes with Cc1c(-c2ccc(OC3CCCC3)cc2)n(Cc2ccc(OCCN3CCCCC3)cc2)c2ccc(O)cc12 ?
5

What measured Infection Luciferase Activity, 1 uM + 17β estradiol goes with Cc1c(-c2ccc(O)cc2)n(Cc2ccc(OCCN3CCCC(C)C3)cc2)c2ccc(O)cc12 (stereo not shown) ?
5

What measured Infection Luciferase Activity, 1 uM + 17β estradiol goes with Cc1c(-c2ccc(O)cc2)n(Cc2ccc(OCCN3C[C@@H]4CC[C@H]3C4)cc2)c2ccc(O)cc12 ?
−1

What measured Infection Luciferase Activity, 1 uM + 17β estradiol goes with Cc1c(-c2ccc(O)cc2)n(Cc2ccc(OCC[N+](C)(C)C)cc2)c2ccc(O)cc12.[I-] ?
81

What measured Infection Luciferase Activity, 1 uM + 17β estradiol goes with Cc1c(-c2ccc(O)cc2)n(Cc2ccc(OCCN3CC4(C)CC3CC(C)(C)C4)cc2)c2ccc(O)cc12 (stereo not shown) ?
10

What measured Infection Luciferase Activity, 1 uM + 17β estradiol goes with Cc1c(-c2ccc(OC(C)C)cc2)n(Cc2ccc(OCCN3CCCCC3)cc2)c2ccc(O)cc12 ?
1

What measured Infection Luciferase Activity, 1 uM + 17β estradiol goes with CCCN(CCC)CCOc1ccc(Cn2c(-c3ccc(O)cc3)c(C)c3cc(O)ccc32)cc1 ?
10

What measured Infection Luciferase Activity, 1 uM + 17β estradiol goes with Cc1c(-c2ccc(O)cc2)n(Cc2ccc(OCCN3CCCC(C)(C)C3)cc2)c2ccc(O)cc12 ?
23

What measured Infection Luciferase Activity, 1 uM + 17β estradiol goes with CCc1c(-c2ccc(O)cc2)n(Cc2ccc(OCCN3CCCCC3)cc2)c2ccc(O)cc12 ?
8

What measured Infection Luciferase Activity, 1 uM + 17β estradiol goes with Cc1c(-c2ccc3c(c2)OCO3)n(Cc2ccc(OCCN3CCCCC3)cc2)c2ccc(O)cc12 ?
−1

What measured Infection Luciferase Activity, 1 uM + 17β estradiol goes with Cc1c(-c2ccc(O)cc2)n(Cc2ccc(OCCCN3CCCCC3)cc2)c2ccc(O)cc12 ?
23

What measured Infection Luciferase Activity, 1 uM + 17β estradiol goes with Cc1c(-c2ccc(O)cc2)n(Cc2ccc(OCCN3CCCCC3C)cc2)c2ccc(O)cc12 (stereo not shown) ?
10

What measured Infection Luciferase Activity, 1 uM + 17β estradiol goes with Cc1c(-c2ccc(OC(=O)C(C)(C)C)cc2)n(Cc2ccc(OCCN3CCCCC3)cc2)c2ccc(OC(=O)C(C)(C)C)cc12 ?
−13

Values from patent US8815934B2
